Assignment: determine reported ELISA for the given binders.
# measured on: T1, PCSK9Δhelix (human, Chemically biotinylated in the phage ELISAs; the site is not given.)
# T1 construct: construct M1-Q692 with engineered TEV site, cleaved by TEV; also called His-PCSK9Δhelix; open groove PCSK9Δhelix
# procedure text: phage spot ELISA
Ends that are not written are not given here.

What value of ELISA has been recorded for this entry: TAFTSWEEYLDWVGSGSYRGAWSVFGGSTD [SEQ ID NO 336]
2.69

Quick one: TAFTSWEEYLDWVGSGGDCYPHCRLV [SEQ ID NO 359]
2.85

Quick one: TAFTSWEEYLDWVGSGQELPNHRRLS [SEQ ID NO 346]
2.43

Quick one: TAFTSWEEYLDWVGSGCVKVGLSWIGDCNS [SEQ ID NO 334]
2.74

Quick one: TAFTSWEEYLDWVGSGNMCYLRGKMDCNIV [SEQ ID NO 347]
2.83

Quick one: TAFTSWEEYLDWVGSGKCDSHYIRGVVACH [SEQ ID NO 356]
3.03

Quick one: TAFTSWEEYLDWVGSGGCGYRYMCDMINGL [SEQ ID NO 358]
3.01

Quick one: TAFTSWEEYLDWVGSGVCSDHYIGGKEVRC [SEQ ID NO 348]
2.94

Quick one: TAFTSWEEYLDWVGSGRGEVYDKGGVIVHL [SEQ ID NO 343]
2.83

Quick one: TAFTSWEEYLDWVGSGSSTWHFVGGVRV [SEQ ID NO 354]
2.88

Quick one: TAFTSWEEYLDWVGSGQTTYLRVSSS [SEQ ID NO 341]
2.29

Quick one: TAFTSWEEYLDWVGSGQISYLRNA (not fully specified; also: Q (1) D-amino acid, place in chain unclear (phage-displayed)) [SEQ ID NO 342]
2.31

Quick one: TAFTSWEEYLDWVGSGSETGLGTYYG [SEQ ID NO 350]
2.78
